Property: PBM binding z-score; scope: individual sequences
Tested on: THRa:RXRa (NR concentration 90 nM, RXRa partner concentration 90 nM)
Test: PBM binding z-score (relative to random genomic background probes); higher = stronger binding; sequences stand for … in GC…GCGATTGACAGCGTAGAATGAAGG
Form: value (number only, do not type unit).

>>> value_reported("CCTAGTTGGTCAGGACGTCACACACCGGATATGA")
0.673
>>> value_reported("GGAACGAGGGCATTCGGGTTGATAGCATGGCGAT")
2.68
>>> value_reported("GCGAGTGGGGCAAAGCAGGTTACCATAAGGTTGG")
2.93

Q: What does the data say about its PBM binding z-score? Entry: `GATACAGGGTCAAGGCCTGAGTACGCGTATTGAT`
Result: 3.37

Q: What does the data say about its PBM binding z-score? Entry: `ACGGACAGGTGATGAAGGTAACTCAGGCTATCAT`
Result: 1.02

Q: What does the data say about its PBM binding z-score? Entry: `CGAACGAGGGCTTGAGTTGATAGCAAATGCCGAT`
Result: -0.359

Q: What does the data say about its PBM binding z-score? Entry: `CCTACTGGGCCAAAAAGGTCATAGATGCCGATAA`
Result: 3.08

Q: What does the data say about its PBM binding z-score? Entry: `GCTTACGGGTCAATGGTTATAGCATGAATAGAAT`
Result: 1.87

###

Tested on: RARb:RXRa (NR concentration 270 nM, RXRa partner concentration 90 nM)
Experiment: PBM binding z-score (relative to random genomic background probes); higher = stronger binding; sequences stand for … in GC…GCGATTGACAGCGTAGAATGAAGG
Outcome measure: PBM binding z-score
Form: value (number only, do not type unit).

// solved cases for PBM binding z-score follow
>>> value_reported("CCGACTGTGGCAGAAAGGTTACCATACCATCCGG")
1.45
>>> value_reported("TGTCAAAGTTCAAAGGTAACGTATGTATCCACAC")
5.04
>>> value_reported("ATATGCAGGTTACATCCGGGTCATTCAGGCTATG")
2.34
>>> value_reported("TCTTGTAGATCAATAGACGTTAAGAAAGTGCGCT")
-0.173
>>> value_reported("ATATGTAGGTTACATCCGGGTCATTCACGCTATG")
2.41
>>> value_reported("GGAACGACGGCATTCGAGTTGATAGCATGGCGAT")
-1.24
>>> value_reported("CAAACTAGGTCGAGGTCAAAGTCGGTTTGTGCCA")
4.28
>>> value_reported("ACTTACGGGTCGACGAGGTTATAGCACGCGTATA")
1.82
>>> value_reported("AGTCAAAGTTCACTAGGTATCGTAAGATTCAGCT")
4.7
>>> value_reported("ACAGAAAGGTGATGAAGGTAACTCAGGCTATCAT")
1.74

Let us examine a further case.
Q: What does the data say about its PBM binding z-score? Entry: `CGTCCAAGGTCAGCAGGTCCGTGAAAGCGACGTG`
Result: 4.86

###

System: PPARg:RXRa 90nM:30nM, anti-RXR (NR concentration 90 nM, RXRa partner concentration 30 nM)
Test: PBM binding z-score (relative to random genomic background probes); higher = stronger binding; sequences stand for … in GC…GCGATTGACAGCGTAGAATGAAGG
Outcome measure: PBM binding z-score
Form: value (number only, do not type unit).

Q: What does the data say about its PBM binding z-score? Entry: `TAGCCTAGGTCAGATCGGGCCAGTAAACGCTATA`
Result: -0.377

Q: What does the data say about its PBM binding z-score? Entry: `TCGTGTAGATCAAGCAGGTTAAGAAAGCCTGAGT`
Result: 1.61

Q: What does the data say about its PBM binding z-score? Entry: `ATCGGAAGGTCGACGAGGTGAGTATACACCGTTT`
Result: 0.452

Q: What does the data say about its PBM binding z-score? Entry: `TAGCCTAGGCCATGCGGGCCAGTATAGTGTCGGC`
Result: -1.18

Q: What does the data say about its PBM binding z-score? Entry: `ACTATTAGTTGACTTAGGGCAAACGATACGACGC`
Result: 0.322

Q: What does the data say about its PBM binding z-score? Entry: `AGTCAAAGTTCATCTAGGTAAAGTAAGATATGCT`
Result: 5.54

Q: What does the data say about its PBM binding z-score? Entry: `TCGAGTAGGTGAGGGGCATTCAGAATGGCGTCGA`
Result: 2.63

Q: What does the data say about its PBM binding z-score? Entry: `TATACAGGGTCGAAGGCCAGAGTACGAATGTCGA`
Result: 2.65
